# target-desc: plasmin (Homo sapiens)
# Construct: uPA, Factor Xa, thrombin, plasmin and trypsin (Sigma, USA); purchased Sigma, USA
# Sequence (P00747 581-810 limits assumed, species assumed): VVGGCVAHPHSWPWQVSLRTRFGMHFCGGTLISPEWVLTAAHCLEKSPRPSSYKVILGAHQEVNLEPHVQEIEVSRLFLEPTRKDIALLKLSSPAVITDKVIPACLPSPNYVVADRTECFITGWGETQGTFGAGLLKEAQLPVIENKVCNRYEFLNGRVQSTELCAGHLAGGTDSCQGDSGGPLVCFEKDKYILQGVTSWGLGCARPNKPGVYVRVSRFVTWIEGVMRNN
# Sequence (P00747 97-580 partner limits assumed, species assumed): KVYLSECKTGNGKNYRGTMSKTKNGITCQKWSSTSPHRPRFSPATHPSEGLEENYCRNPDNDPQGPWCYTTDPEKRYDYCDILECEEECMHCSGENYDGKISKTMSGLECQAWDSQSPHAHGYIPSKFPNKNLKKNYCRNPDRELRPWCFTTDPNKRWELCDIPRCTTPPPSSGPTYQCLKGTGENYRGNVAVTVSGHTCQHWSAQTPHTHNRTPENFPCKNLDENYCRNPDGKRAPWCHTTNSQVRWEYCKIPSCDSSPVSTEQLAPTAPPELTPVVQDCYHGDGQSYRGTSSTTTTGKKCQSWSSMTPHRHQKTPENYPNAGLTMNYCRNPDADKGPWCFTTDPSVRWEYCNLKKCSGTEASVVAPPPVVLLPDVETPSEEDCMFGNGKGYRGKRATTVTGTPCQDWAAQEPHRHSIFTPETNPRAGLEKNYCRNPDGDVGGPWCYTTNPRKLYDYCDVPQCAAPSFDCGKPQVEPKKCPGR
# test: Plasmin enzymatic assay (selectivity screening)
# Type: biochemical
measured-endpoint: inhibition at 5 µM (%)

1. N=C(N)c1ccc(Oc2cc(Oc3ccc(C(=N)N)cc3Cl)cc(C(=O)NC3CCC(N)CC3)c2)cc1 (stereo not shown)	22
2. N=C(N)c1ccc(Oc2cc(OCc3cccc(C(=N)N)c3)cc(C(=O)NC3CCC(N)CC3)c2)cc1 (stereo not shown)	30
3. N=C(N)c1ccc(Oc2cc(OCc3ccc(CN)cc3)cc(C(=O)NC3CCC(N)CC3)c2)cc1 (stereo not shown)	21
4. N=C(N)c1ccc(Oc2cc(C(=O)NC3CCC(N)CC3)cc(Oc3ccc(C(=N)N)cc3)n2)cc1 (stereo not shown)	33
